Ref: ChEMBL document CHEMBL1144909

Target: DNA topoisomerase II (Homo sapiens) (UniProt P11388+Q02880)
Experiment: Inhibition against decatenation activity of DNA topoisomerase II at a concentration of 100 uM
Type: protein assay
The source made the active and inactive calls. The rule behind the calls is not given here.
recordedMetric: inhibition

N[C@@H]1CCN(c2c(F)cc3c(=O)c(C(=O)O)cn4c3c2Oc2c-4ccc3c2ccc2ccccc23)C1; inactive
N[C@H]1CCN(c2c(F)cc3c(=O)c(C(=O)O)cn4c3c2Oc2cc3c(ccc5ccccc53)cc2-4)C1; inactive
N[C@@H]1CCN(c2c(F)cc3c(=O)c(C(=O)O)cn4c3c2Oc2cc3c(ccc5ccccc53)cc2-4)C1; inactive
N[C@H]1CCN(c2c(F)cc3c(=O)c(C(=O)O)cn4c3c2Oc2c-4ccc3c2ccc2ccccc23)C1; inactive

###

Listed below: pIC50 values for each entry.
Target: DNA polymerase I, thermostable (Thermus aquaticus, UniProt P19821)
Sequence (P19821 whole entry): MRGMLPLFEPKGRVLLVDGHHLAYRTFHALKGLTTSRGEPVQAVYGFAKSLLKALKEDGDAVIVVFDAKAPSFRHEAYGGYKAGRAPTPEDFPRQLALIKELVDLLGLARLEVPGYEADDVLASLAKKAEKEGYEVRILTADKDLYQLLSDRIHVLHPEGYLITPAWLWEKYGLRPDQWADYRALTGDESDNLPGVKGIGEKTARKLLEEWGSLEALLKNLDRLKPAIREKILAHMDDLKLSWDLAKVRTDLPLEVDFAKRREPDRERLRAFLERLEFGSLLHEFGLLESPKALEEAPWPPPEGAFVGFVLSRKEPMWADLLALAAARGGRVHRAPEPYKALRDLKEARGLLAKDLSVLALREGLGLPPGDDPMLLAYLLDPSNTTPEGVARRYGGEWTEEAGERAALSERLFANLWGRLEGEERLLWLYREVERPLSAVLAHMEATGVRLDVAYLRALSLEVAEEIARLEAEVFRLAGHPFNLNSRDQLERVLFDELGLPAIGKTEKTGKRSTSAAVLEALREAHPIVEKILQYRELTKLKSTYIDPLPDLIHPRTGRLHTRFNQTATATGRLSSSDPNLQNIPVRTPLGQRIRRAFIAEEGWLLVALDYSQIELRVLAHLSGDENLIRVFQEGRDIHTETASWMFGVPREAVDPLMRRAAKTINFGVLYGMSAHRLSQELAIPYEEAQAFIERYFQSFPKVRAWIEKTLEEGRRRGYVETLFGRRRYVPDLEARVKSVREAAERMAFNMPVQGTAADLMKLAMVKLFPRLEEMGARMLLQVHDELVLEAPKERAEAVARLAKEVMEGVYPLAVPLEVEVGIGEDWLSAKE
Assay: Inhibition of Taq DNA polymerase
The scale used: pIC50 is minus the common logarithm of the concentration in molar units.

These recorded examples may help you get a feel for the data.
N[C@H]1CCN(c2c(F)cc3c(=O)c(C(=O)O)cn4c3c2Oc2cc3c(ccc5ccccc53)cc2-4)C1; 5.24
N[C@@H]1CCN(c2c(F)cc3c(=O)c(C(=O)O)cn4c3c2Oc2cc3c(ccc5ccccc53)cc2-4)C1; 5.62
N[C@H]1CCN(c2c(F)cc3c(=O)c(C(=O)O)cn4c3c2Oc2c-4ccc3c2ccc2ccccc23)C1; 6.17

Now for the compound whose pIC50 we want.
pIC50 lookup needed for N[C@@H]1CCN(c2c(F)cc3c(=O)c(C(=O)O)cn4c3c2Oc2c-4ccc3c2ccc2ccccc23)C1 , thanks.
7.22

###

Listed below: Average values for each entry.
Tested on: RPMI-8226
Assay: Cytotoxicity of compound against 8226/S cells
Type: functional, Homo sapiens
// note: answer is a bare numeric in µM

N[C@H]1CCN(c2c(F)cc3c(=O)c(C(=O)O)cn4c3c2Oc2c-4ccc3c2ccc2ccccc23)C1; 0.69
N[C@@H]1CCN(c2c(F)cc3c(=O)c(C(=O)O)cn4c3c2Oc2cc3c(ccc5ccccc53)cc2-4)C1; 5.46
N[C@@H]1CCN(c2c(F)cc3c(=O)c(C(=O)O)cn4c3c2Oc2c-4ccc3c2ccc2ccccc23)C1; 0.324

Now for the compound whose Average we want.
Average lookup needed for COc1cccc2c1C(=O)c1c(O)c3c(c(O)c1C2=O)C[C@@](O)(C(=O)CO)C[C@@H]3O[C@H]1C[C@H](N)[C@H](O)[C@H](C)O1 [DOXORUBICIN] , thanks.
0.037

###

Listed below: IC50 values for each entry.
Molecular target: DNA polymerase I, thermostable (Thermus aquaticus, UniProt P19821)
Experiment: Inhibition of Taq DNA polymerase by TRAP assay
// note: answer is a bare numeric in µM

N[C@H]1CCN(c2c(F)cc3c(=O)c(C(=O)O)cn4c3c2Oc2c-4ccc3c2ccc2ccccc23)C1; 21

IC50 lookup needed for N[C@@H]1CCN(c2c(F)cc3c(=O)c(C(=O)O)cn4c3c2Oc2c-4ccc3c2ccc2ccccc23)C1 , thanks.
5.6
